- study system: T1, NHERF1 PDZ1 domain (1-140) (human, UniProt O14745 1-140)
- T1 sequence (looked up): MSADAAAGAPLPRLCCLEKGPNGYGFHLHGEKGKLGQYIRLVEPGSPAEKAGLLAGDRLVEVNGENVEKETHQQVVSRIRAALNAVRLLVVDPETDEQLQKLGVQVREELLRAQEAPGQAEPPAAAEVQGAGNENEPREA
- assay procedure: SPR
Ends that are not written are not given here. * marks the point of attachment. Biotin = O=C1N[C@H]2[C@H](CS[C@H]2CCCCC(=O)*)N1
quantity kind: pKd
Please express pKd as -log10 of the molar concentration.

Prompt: May I ask what pKd has been recorded for Biotin-DEEASGPERPPALLQEEWETVM [biotinylated carboxy-terminal 22-amino acid PTHR peptide] ?
Response: 4.80
